# Measured On: Cathepsin D (Cat D) (Homo sapiens)
# Sequence (P07339 65-412, species assumed): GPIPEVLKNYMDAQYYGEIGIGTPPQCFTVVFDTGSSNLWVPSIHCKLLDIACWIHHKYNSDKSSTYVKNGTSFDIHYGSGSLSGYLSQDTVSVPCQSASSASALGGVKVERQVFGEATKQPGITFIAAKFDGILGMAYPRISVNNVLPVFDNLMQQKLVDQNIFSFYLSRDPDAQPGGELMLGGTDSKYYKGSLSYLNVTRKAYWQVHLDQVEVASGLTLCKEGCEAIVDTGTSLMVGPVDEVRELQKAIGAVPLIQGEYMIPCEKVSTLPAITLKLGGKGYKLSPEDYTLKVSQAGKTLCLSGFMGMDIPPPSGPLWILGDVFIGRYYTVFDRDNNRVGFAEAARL
# Test Name: In vitro enzymatic Cathepsin D (Cat D) FRET assay
# Format: biochemical
# Experimental Context: Cathepsin D FRET assay; read-out: CatD IC50

Substance Smiles: CC(C)Oc1cnc2c(Nc3ccc4c(c3)[C@@]3(CF)N=C(N)C(C)(C)S(=O)(=O)[C@@H]3CCO4)nccc2n1
Measured On: Cathepsin D (Cat D) (Homo sapiens)
IC50: > 400 µM
//
Substance Smiles: COc1cnc(C(=O)Nc2ccc3c(c2)[C@@]2(CF)N=C(N)C(C)(C)S(=O)(=O)[C@@H]2C[C@H](C)O3)cn1
Measured On: Cathepsin D (Cat D) (Homo sapiens)
IC50: > 400 µM
//
Substance Smiles: CC#CCOc1cnc(C(=O)Nc2ccc3c(c2)[C@@]2(C)N=C(N)C(C)(C)S(=O)(=O)[C@]2(F)CCO3)cn1
Measured On: Cathepsin D (Cat D) (Homo sapiens)
IC50: > 400 µM
//
Substance Smiles: Cc1cc(Cl)cnc1C(=O)Nc1ccc2c(c1)[C@@]1(CF)N=C(N)C(C)(C)S(=O)(=O)[C@@H]1CCO2
Measured On: Cathepsin D (Cat D) (Homo sapiens)
IC50: > 400 µM
//
Substance Smiles: Cc1cc(C(F)(F)F)cnc1C(=O)Nc1ccc2c(c1)[C@@]1(CF)N=C(N)C(C)(C)S(=O)(=O)[C@H]1CCO2
Measured On: Cathepsin D (Cat D) (Homo sapiens)
IC50: > 400 µM
//
Substance Smiles: COc1cnc2c(Nc3ccc4c(c3)[C@@]3(CF)N=C(N)C(C)(C)S(=O)(=O)[C@H]3CCO4)nccc2n1
Measured On: Cathepsin D (Cat D) (Homo sapiens)
IC50: > 400 µM
//
Substance Smiles: COc1cnc2c(Nc3ccc4c(c3)[C@@]3(CF)N=C(N)C(C)(C)S(=O)(=O)[C@@H]3CCO4)nccc2n1
Measured On: Cathepsin D (Cat D) (Homo sapiens)
IC50: > 400 µM
//
Substance Smiles: Cc1cc(C#N)cnc1C(=O)Nc1ccc2c(c1)[C@@]1(C)N=C(N)C(C)(C)S(=O)(=O)[C@@H]1CC(C)(C)O2
Measured On: Cathepsin D (Cat D) (Homo sapiens)
IC50: > 400 µM
